# ASSAY_SUMMARY: NTR1-driven beta-arrestin-GFP spot formation – imaging, U2OS cells, high content, primary screen (AID 493036)
# CONDITION_INFO: agonist mode, measured here: cell count, cytotoxicity flag, at 20 µM
Out of some 330,000 compounds screened, about 560 (0.17%) were called active. This is one part of a sample in which actives are shown more often than they occur.
Could you please mark True for values of cell count below 60 cells and False for values at or above it?

1. CCOc1ccc2sc(NS(=O)(=O)c3ccc(N)cc3)nc2c1 : False
2. COc1ccc(C(C[N+](=O)[O-])n2nc(C)cc2C)cc1 (stereo unspecified) : False
3. CCOC(=O)c1c(CN2CCOCC2)n(-c2ccccc2)c2ccc(O)cc12 : False
4. Clc1cccc(Cl)c1Cn1nnc(-c2cccs2)n1 : False
5. CC1=CC=CN2C1=NC(=O)CC2(C)C(=O)N(CC(=O)NC1CCCC1)c1ccccc1C (stereo unspecified) : True
6. COCC(C)n1c(C)cc(C(=O)CSc2cc(C)c3ccccc3n2)c1C (stereo unspecified) : True
7. CCOc1ccc(C(C)C)cc1S(=O)(=O)n1nc(C)cc1C : True
8. CCN(C(=O)CSc1ncnc2c1cnn2-c1ccccc1)C1CCS(=O)(=O)C1 (stereo unspecified) : True
9. O=C(Nc1ccncc1)c1ccc(Cl)c([N+](=O)[O-])c1 : False
10. O=C1CCC(CCC(=O)N2CCCC(C(=O)c3ccc(Cl)cc3)C2)=NN1 (stereo unspecified) : False
11. Cc1ccccc1C(=O)Nc1cccc(-c2nnc(SCC(=O)O)n2C)c1 : True

###

Recorded cell count values for a group of compounds are listed next.
# ASSAY_SUMMARY: NTR1-driven beta-arrestin-GFP spot formation – imaging, U2OS cells, high content, primary screen (AID 493036)
# CONDITION_INFO: agonist mode, measured here: cell count, cytotoxicity flag, at 20 µM
Hit rate of the full screen: of about 330,000 compounds, about 560 (0.17%) were called active. The entries come from a sample that favours actives as a whole.
VALUE_KIND: cell count (cells)

1. N#CCSc1nc2c(c(=O)n1Cc1ccccc1)C1(CCCC1)Cc1ccccc1-2 : 47
2. CCC1(CC)Cc2ccccc2-c2nc(CCl)[nH]c(=O)c21 : 60
3. COc1ccc(N2CCN(S(=O)(=O)c3ccc4c(c3)N(C(C)=O)CCO4)CC2)cc1 : 59
4. CC1(C)Cc2ccccc2-c2nc(CN3CCOCC3)[nH]c(=O)c21 : 89
5. CC1(C)Cc2ccccc2-c2[nH]c(=S)[nH]c(=O)c21 : 53

###

# TARGET_SYSTEM: Neurotensin receptor type 1 (Homo sapiens) (UniProt P30989)
# Sequence (P30989 whole entry, looked up): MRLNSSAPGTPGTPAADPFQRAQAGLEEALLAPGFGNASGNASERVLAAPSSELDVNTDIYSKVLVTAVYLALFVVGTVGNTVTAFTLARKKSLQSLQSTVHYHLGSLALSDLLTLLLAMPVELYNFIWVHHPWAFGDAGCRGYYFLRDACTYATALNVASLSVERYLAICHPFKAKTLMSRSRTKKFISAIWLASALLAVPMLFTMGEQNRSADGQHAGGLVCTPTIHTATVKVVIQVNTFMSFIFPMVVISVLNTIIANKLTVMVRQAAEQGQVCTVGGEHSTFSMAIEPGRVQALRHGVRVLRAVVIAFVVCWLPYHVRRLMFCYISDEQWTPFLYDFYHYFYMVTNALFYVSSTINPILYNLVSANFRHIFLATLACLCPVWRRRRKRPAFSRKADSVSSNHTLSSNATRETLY
# ASSAY_SUMMARY: NTR1-driven beta-arrestin-GFP spot formation – imaging, U2OS cells, high content, primary screen (AID 493036)
# CONDITION_INFO: agonist mode, at 20 µM
Out of some 330,000 compounds screened, about 560 (0.17%) were called active.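 The calls were made as follows: active = activation at or above 40% of the spot to cytoplasm intensity ratio, with at least 20 cells analyzed; inconclusive = wells under 20 cells, flagged as cytotoxic or low count; inactive = the rest.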 The list comes from a sample in which actives are over-represented; it also holds close analogues and randomly drawn compounds.
Possible outcomes: yes (1) for active, no (0) for inactive

1) CCCCN1C(=O)c2ccc(C(=O)Nc3ccc(S(=O)(=O)N(C)C)cc3)cc2C1=O : no (0)
2) Cc1ccc(C(=O)N/C(=C\c2cn(S(=O)(=O)N(C)C)c3ccccc23)C(=O)N2CCCC2)cc1 : no (0)
3) C=CCNc1nc(N)c([N+](=O)[O-])c(NC2CCCCC2)n1 : no (0)
4) Nc1nc(NCC2CCCO2)nc(Nc2ccccc2F)c1[N+](=O)[O-] (stereo not given) : no (0)
5) Cc1cc(Cl)ccc1OCc1nc(-c2ccncc2)no1 : no (0)
6) COc1ccc([C@H]2CC(=O)C=C(c3ccc(C)cc3)C2)cc1 : no (0)
7) Nc1nc(Nc2ccccc2F)nc(NC2CCCCC2)c1[N+](=O)[O-] : yes (1)
8) Cc1nc2ccc(C(=O)N/N=C/c3ccc(O)cc3)cc2[nH]1 : no (0)
9) COC(c1ccccc1)c1nnc(CCC(=O)N2CCN(CCOc3ccccc3)CC2)o1 (stereo not given) : no (0)
10) CC(C)(C)OC(=O)NCCCCCNC(=O)c1[nH]cnc1C(=O)Nc1nccs1 : no (0)

###

# ASSAY_SUMMARY: NTR1-driven beta-arrestin-GFP spot formation – imaging, U2OS cells, high content, primary screen (AID 493036)
# CONDITION_INFO: agonist mode, measured here: cell count, cytotoxicity flag, at 20 µM
In all, about 330,000 compounds went through this assay and about 560 (0.17%) were called active. This excerpt belongs to a sample that is enriched for actives.
Recorded cell count values for a group of compounds are listed next.
VALUE_KIND: cell count (cells)

1. O=C(Nc1ccc(F)c([N+](=O)[O-])c1)C1CCCO1 (stereo not given) : 58
2. CCCC(=O)Nc1ncnc2c1ncn2[C@@H]1O[C@@H]2OP(=O)(O)OC[C@H]2[C@H]1OC(=O)CCC : 60
3. CC(C)(C)OC(=O)N1CCC(NC(=O)c2[nH]cnc2C(=O)N[C@@H](Cc2ccccc2)C(=O)OCc2ccccc2)CC1 : 74
4. COc1ccc(S(=O)(=O)N2CCCCC2)cc1NC(=O)COc1ccccc1 : 55
5. CC(C)(C)OC(=O)CNC(=O)c1[nH]cnc1C(=O)N[C@@H](Cc1ccccc1)C(=O)OCc1ccccc1 : 87

###

# TARGET_SYSTEM: Neurotensin receptor type 1 (Homo sapiens) (UniProt P30989)
# ASSAY_SUMMARY: NTR1-driven beta-arrestin-GFP spot formation – imaging, U2OS cells, high content, primary screen (AID 493036);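 on activation: 0% = DMSO without peptide and 100% = 100 nM NTR1 peptide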
# CONDITION_INFO: agonist mode, at 20 µM, stronger effect = higher value
About 560 (0.17%) of roughly 330,000 compounds were called active. Only a selection was taken, and actives are over-represented in it overall.
Recorded activation values for a group of compounds are listed next.
VALUE_KIND: activation (%)

1. Cc1cccc(-c2nc(Nc3ccc(O)cc3)c3ccccc3n2)c1 : 60.9
2. CSc1ccc(C#N)cc1NC(=O)c1ccc(Cl)cc1 : 0.4
3. O=C(N/N=C/c1ccccn1)c1cccc(NC(=O)c2ccc(Cl)cc2)c1 : 2.8
4. O=C(N[C@@H](Cc1ccccc1)C(=O)OCc1ccccc1)c1nc[nH]c1C(=O)NC1CCNCC1 : 4
5. O=C(CS(=O)(=O)c1ccc(C(F)(F)F)cn1)NNC(=O)c1ccccc1 : -1
6. CCOc1ccc(NC(=O)N2CC=C(n3c(=O)[nH]c4ccccc43)CC2)cc1 : 0.4
7. Clc1cccc(Cl)c1Cn1nnc(-c2cccs2)n1 : 4.8
8. CCOc1c(N2CCCCC2)c(=O)c1=O : 2.2
9. COc1ccc(OC)c(S(=O)(=O)n2c([N+](=O)[O-])cnc2C)c1 : 0.5
10. Cc1cccc(-n2c(=O)c3c(C)c(C)sc3n(CC(N)=O)c2=O)c1 : 0.5
11. COc1ccc(OC)c(S(=O)(=O)NCCC(C)C)c1 : -0.7
12. O=C(CCNS(=O)(=O)c1cccs1)N1CCN(c2ccc(F)cc2)CC1 : -0.5
13. O=C(CCc1ccc(S(=O)(=O)N2CCOCC2)cc1)Nc1ccc2ccccc2c1 : 1.8
14. O=C(/C(=C/c1cccc(Cl)c1)c1nc2ccccc2[nH]1)c1ccccc1 : 40.5
15. O=c1oc2ccccc2cc1-c1csc(Nc2ccc(O)cc2)n1 : 76.8
16. O=C(Nc1ccc2c(c1)CCC2)c1ccc(Br)s1 : 4.4
17. Cc1cc2c(cc1C)N(C(=O)CN1C(=O)c3ccccc3C1=O)C(C)(C)c1ssc(=S)c1-2 : 23.8
18. O=C(Oc1ccccc1C(=S)N1CCCCC1)c1cc([N+](=O)[O-])cc([N+](=O)[O-])c1 : 0.8
19. COc1ccc(C(C[N+](=O)[O-])n2nc(C)cc2C)cc1 (centres undefined) : 47.9
20. N#CCSc1nc2c(c(=O)n1Cc1ccccc1)C1(CCCC1)Cc1ccccc1-2 : 3.2
21. Cc1ccc2c(c1)C(O)(CC(=O)c1cccc(-n3cccc3)c1)C(=O)N2 (centres undefined) : 1.6
22. Cc1ccc(C(=O)N/N=C\c2cc(Br)c(Br)o2)cn1 : 3.4
23. Cc1c(NC(=O)CCC2CCCCC2)cc(C(=O)N2CCOCC2)cc1[N+](=O)[O-] : 1.4
24. COc1ccccc1CN(C)c1nnnn1-c1ccccc1 : 1.1
25. O=C(Cn1ncc(N2CCCC2)c(Br)c1=O)c1ccc(Cl)cc1 : 2.8
26. CCCCCCCCCCOC(=O)Cn1c(COc2cccc(OC)c2)[n+](C)c2ccccc21 : 69.3
27. CCOc1ccccc1NC(=O)NC1CCCCCCC1 : -0.7
28. CC1=C(C(N)=O)C(c2ccc(Br)cc2)n2ncnc2N1 (centres undefined) : -1.6
29. CC(C)(C)Nc1c(-c2cccs2)nc2ccccn12 : 1.2
30. CC1(C)CC(=O)C=C(N2CCOCC2)C1 : 0.2
31. CCCCCCCCCCOC(=O)Cn1c(COc2ccc(C)cc2)[n+](C)c2ccccc21 : 28.5
32. COc1cc(/C=C2/C(=O)ON=C2C)ccc1OCc1ccccc1F : 73.4
33. CC(=O)N1c2ccc(S(=O)(=O)N3CCC(C(=O)NC4CCCCC4C)CC3)cc2CC1C (centres undefined) : 2.5
34. COCc1cc(=O)[nH]c(-c2ccc(C(F)(F)F)cc2)n1 : -0.3
35. CCCS(=O)(=O)N1CCC(C(=O)NCCc2ccc(OC)c(OC)c2)CC1 : -0.4
36. Cc1cccc(NC(=O)C2CCCN(C(=O)NCc3ccccc3)C2)c1C (centres undefined) : 0.3
37. Cc1cc(C)cc(N(CC(=O)N2CC=C(c3ccccc3)CC2)S(=O)(=O)c2c(C)noc2C)c1 : 3.3
38. CNC[C@H](CC1CCCCC1)NC[C@H](NCCC1CCCC1)[C@H](C)O : 4.7
39. Cc1ccc(S(=O)(=O)N2CCOCC2)cc1NC(=O)COC(=O)c1cnccn1 : -0.4
40. O=C(OCC(O)C(O)COC(=O)c1ccccc1)c1ccccc1 (centres undefined) : 0
41. Nc1c(-c2ccc(F)cc2)cnc2ncnn12 : -0.2
42. NS(=O)(=O)c1ccc(CCNC(=O)c2ccc([N+](=O)[O-])cc2[N+](=O)[O-])cc1 : -0.2
43. COc1cc(/C=C2/C(=O)ON=C2C)ccc1OCc1cccc(F)c1 : 5.9
44. Oc1ccc(-c2nnc(Nc3ccccc3)c3ccccc23)cc1 : -0.2
